Activation % at 10 µM (aequorin functional assay) reference
System Under Test: human melanin concentrating hormone type 2 receptor (MCH-2R) (human, UniProt Q969V1 1-340)
Sequence (Q969V1 whole entry, form in doubt): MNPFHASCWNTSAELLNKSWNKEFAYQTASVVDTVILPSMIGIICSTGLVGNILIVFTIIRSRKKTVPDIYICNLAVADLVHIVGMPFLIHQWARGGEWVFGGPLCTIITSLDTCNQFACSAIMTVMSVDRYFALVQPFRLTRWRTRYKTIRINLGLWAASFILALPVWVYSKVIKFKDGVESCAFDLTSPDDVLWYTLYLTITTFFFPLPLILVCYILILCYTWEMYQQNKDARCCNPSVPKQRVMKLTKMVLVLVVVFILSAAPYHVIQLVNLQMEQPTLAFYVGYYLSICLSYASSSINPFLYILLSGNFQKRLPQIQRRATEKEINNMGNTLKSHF
Procedure Summary: cell-based or functional assay
Bridges are numbered along the chain shown (N, C = ends). Where no end group is shown, it is not given here.
Output spec: scalar in %, unitless text.

Example results:
>  <Binder>
DFDMLRCMLGRVYRACWQV (disulfide 7-16, also called Ala^15) [SEQ. ID. NO. 53]

>  <Reported Value>
96

$$$$
>  <Binder>
DFDMLRCMLGRVYRPCAQV (disulfide 7-16, also called Ala^17) [SEQ. ID. NO. 54]

>  <Reported Value>
95

$$$$
>  <Binder>
DFDMLRCMLGRVYRPCWQA (disulfide 7-16, also called Ala^19) [SEQ. ID. NO. 56]

>  <Reported Value>
99

$$$$

Query: Note Activation % at 10 µM (aequorin functional assay) for the binder shown: DFDMLRCMLGRVYRPCWQV (ligand, disulfide 7-16 (inferred), cyclic 19-amino acid peptide; also called hMCH; mammalian MCH) [human MCH (melanin-concentrating hormone), SEQ. ID. NO. 1]
Response: 100

Query: Tell me measured Activation % at 10 µM (aequorin functional assay) for DFDMARCMLGRVYRPCWQV (disulfide 7-16, also called Ala^5) [SEQ. ID. NO. 45] please.
Response: 94
